tested on: SK-BR-3; assay: Cytotoxicity against human SKBR3 cells after 72 hrs by celltiter-glo assay; assay type: functional, cell-based; settings: Homo sapiens, SK-BR-3, 72 h
Consider the following compounds; for each one, report its IC50.
One number for each entry, in nM.

Sample records with IC50:
CO[C@H]1/C=C\C=C(/C)C(=O)NC2=CC(=O)C(NCCN(C)C)=C(C[C@@H](C)C[C@H](OC)[C@H](O)[C@@H](C)/C=C(\C)[C@@H]1OC(N)=O)C2=O (stereo in doubt) [ALVESPIMYCIN]; 24
CO[C@H]1C[C@H](C)CC2=C(NCCN(C)C)C(=O)C=C(NC(=O)/C(C)=C/C=C\[C@H](OC)[C@@H](OC(N)=O)/C(C)=C/[C@H](C)/C1=N\OCC(=O)O)C2=O (stereo in doubt); 2700
C=CCNC1=C2C[C@@H](C)C[C@H](OC)[C@H](OC(=O)CCN)[C@@H](C)/C=C(\C)[C@H](OC(N)=O)[C@@H](OC)/C=C\C=C(/C)C(=O)NC(=CC1=O)C2=O (stereo in doubt); 1800
COC1=C2C[C@@H](C)C[C@H](OC)[C@H](OC(=O)CN)[C@@H](C)/C=C(\C)[C@H](OC(N)=O)[C@@H](OC)/C=C\C=C(/C)C(=O)NC(=CC1=O)C2=O (stereo in doubt); 480
CO[C@H]1/C=C\C=C(/C)C(=O)NC2=CC(=O)C(NCCN3CCCC3)=C(C[C@@H](C)C[C@H](OC)[C@H](O)[C@@H](C)/C=C(\C)[C@@H]1OC(N)=O)C2=O (stereo in doubt); 70
C=CCNC1=C2C[C@@H](C)C[C@H](OC)[C@H](O)[C@@H](C)/C=C(\C)[C@H](OC(N)=O)[C@@H](OC)/C=C\C=C(/C)C(=O)NC(=CC1=O)C2=O [TANESPIMYCIN]; 33

Quick request: IC50 for each listed item, please.
1. CO[C@H]1C[C@H](C)CC2=C(NCCF)C(=O)C=C(NC(=O)/C(C)=C/C=C\[C@H](OC)[C@@H](OC(N)=O)/C(C)=C/[C@H](C)C1=O)C2=O (stereo in doubt)
2. CO[C@H]1/C=C\C=C(/C)C(=O)NC2=CC(=O)C(NCCF)=C(C[C@@H](C)C[C@H](OC)[C@H](OC(=O)CN)[C@@H](C)/C=C(\C)[C@@H]1OC(N)=O)C2=O (stereo in doubt)

a:
[170, 110]

Quick request: IC50 for each listed item, please.
1. CO[C@H]1C[C@H](C)CC2=C(NCCN(C)C)C(=O)C=C(NC(=O)/C(C)=C/C=C\[C@H](OC)[C@@H](OC(N)=O)/C(C)=C/[C@H](C)/C1=N\OCc1ccccc1)C2=O (stereo in doubt)
2. C=CCO[C@H]1[C@@H](OC)C[C@H](C)CC2=C(N3CCC3)C(=O)C=C(NC(=O)/C(C)=C/C=C\[C@H](OC)[C@@H](OC(N)=O)/C(C)=C/[C@@H]1C)C2=O
3. CO[C@H]1/C=C\C=C(/C)C(=O)NC2=CC(=O)C(NCCN(C)C)=C(C[C@@H](C)C[C@H](OC)[C@H](NCC(F)F)[C@@H](C)/C=C(\C)[C@@H]1OC(N)=O)C2=O (stereo in doubt)
4. CO[C@H]1/C=C\C=C(/C)C(=O)NC2=CC(=O)C(NCCN(C)C)=C(C[C@@H](C)C[C@H](OC)[C@H](NCCN(C)C)[C@@H](C)/C=C(\C)[C@@H]1OC(N)=O)C2=O (stereo in doubt)
5. CO[C@H]1[C@@H](OC)C[C@H](C)CC2=C(NCCN(C)C)C(=O)C=C(NC(=O)/C(C)=C/C=C\[C@H](OC)[C@@H](OC(N)=O)/C(C)=C/[C@@H]1C)C2=O
6. C=CCNC1=C2C[C@@H](C)C[C@H](OC)[C@H](OC)[C@@H](C)/C=C(\C)[C@H](OC(N)=O)[C@@H](OC)/C=C\C=C(/C)C(=O)NC(=CC1=O)C2=O (stereo in doubt)
7. COC1=C2C[C@@H](C)C[C@H](OC)[C@H](OC)[C@@H](C)/C=C(\C)[C@H](OC(N)=O)[C@@H](OC)/C=C\C=C(/C)C(=O)NC(=CC1=O)C2=O
8. COC1=C2C[C@@H](C)C[C@H](OC)[C@H](OC(=O)CCN)[C@@H](C)/C=C(\C)[C@H](OC(N)=O)[C@@H](OC)/C=C\C=C(/C)C(=O)NC(=CC1=O)C2=O (stereo in doubt)

a:
480
390
370
460
11
280
9.1
1700

Quick request: IC50 for each listed item, please.
1. CO/N=C1/[C@@H](OC)C[C@H](C)CC2=C(NCCN(C)C)C(=O)C=C(NC(=O)/C(C)=C/C=C\[C@H](OC)[C@@H](OC(N)=O)/C(C)=C/[C@@H]1C)C2=O (stereo in doubt)
2. C=CCO/N=C1/[C@@H](OC)C[C@H](C)CC2=C(NCCN(C)C)C(=O)C=C(NC(=O)/C(C)=C/C=C\[C@H](OC)[C@@H](OC(N)=O)/C(C)=C/[C@@H]1C)C2=O (stereo in doubt)
3. CO[C@H]1C[C@H](C)CC2=C(NCCN(C)C)C(=O)C=C(NC(=O)/C(C)=C/C=C\[C@H](OC)[C@@H](OC(N)=O)/C(C)=C/[C@H](C)C1=O)C2=O (stereo in doubt)
4. C=CCNC1=C2C[C@@H](C)C[C@H](OC)C(=O)[C@@H](C)/C=C(\C)[C@H](OC(N)=O)[C@@H](OC)/C=C\C=C(/C)C(=O)NC(=CC1=O)C2=O (stereo in doubt)

a:
550
400
100
450

* * *

target: Heat shock protein HSP 90-beta (Homo sapiens); assay: Binding affinity to human recombinant HSP90
Sequence (P08238 whole entry): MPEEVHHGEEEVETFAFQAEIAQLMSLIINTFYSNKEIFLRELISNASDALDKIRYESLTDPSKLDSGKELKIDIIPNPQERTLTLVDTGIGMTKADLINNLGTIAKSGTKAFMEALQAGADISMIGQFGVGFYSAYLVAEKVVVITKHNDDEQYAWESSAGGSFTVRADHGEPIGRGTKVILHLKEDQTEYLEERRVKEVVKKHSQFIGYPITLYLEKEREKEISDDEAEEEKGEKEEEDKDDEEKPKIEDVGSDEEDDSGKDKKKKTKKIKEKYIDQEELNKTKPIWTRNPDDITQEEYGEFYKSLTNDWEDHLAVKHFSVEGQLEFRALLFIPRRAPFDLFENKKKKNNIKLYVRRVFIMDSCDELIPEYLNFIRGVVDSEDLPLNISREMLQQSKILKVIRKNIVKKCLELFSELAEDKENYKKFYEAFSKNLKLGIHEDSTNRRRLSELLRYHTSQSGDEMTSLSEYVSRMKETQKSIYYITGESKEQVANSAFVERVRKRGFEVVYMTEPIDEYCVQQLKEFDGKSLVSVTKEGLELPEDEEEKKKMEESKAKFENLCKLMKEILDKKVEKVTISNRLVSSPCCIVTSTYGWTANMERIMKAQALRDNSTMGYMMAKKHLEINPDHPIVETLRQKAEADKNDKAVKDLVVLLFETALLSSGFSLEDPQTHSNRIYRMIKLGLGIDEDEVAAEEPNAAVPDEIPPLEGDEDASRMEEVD
PARAMETER_MEASURED: Kd

Sample records with Kd:
CO[C@H]1C[C@H](C)CC2=C(NCCN(C)C)C(=O)C=C(NC(=O)/C(C)=C/C=C\[C@H](OC)[C@@H](OC(N)=O)/C(C)=C/[C@H](C)/C1=N\OCC(=O)O)C2=O (stereo in doubt); > 25 µM
CO[C@H]1[C@@H](OC)C[C@H](C)CC2=C(NCCc3c[nH]cn3)C(=O)C=C(NC(=O)/C(C)=C/C=C\[C@H](OC)[C@@H](OC(N)=O)/C(C)=C/[C@@H]1C)C2=O (stereo in doubt); 2 µM
CO[C@H]1[C@@H](OC)C[C@H](C)CC2=C(NCCN(C)C)C(=O)C=C(NC(=O)/C(C)=C/C=C\[C@H](OC)[C@@H](OC(N)=O)/C(C)=C/[C@@H]1C)C2=O; 0.8 µM

Quick request: Kd for each listed item, please.
1. CO/N=C1/[C@@H](OC)C[C@H](C)CC2=C(NCCN(C)C)C(=O)C=C(NC(=O)/C(C)=C/C=C\[C@H](OC)[C@@H](OC(N)=O)/C(C)=C/[C@@H]1C)C2=O (stereo in doubt)
2. CO[C@H]1/C=C\C=C(/C)C(=O)NC2=CC(=O)C(NCCN3CCCC3)=C(C[C@@H](C)C[C@H](OC)[C@H](O)[C@@H](C)/C=C(\C)[C@@H]1OC(N)=O)C2=O (stereo in doubt)
3. CO[C@H]1/C=C\C=C(/C)C(=O)NC2=CC(=O)C(NCCF)=C(C[C@@H](C)C[C@H](OC)[C@H](OC(=O)CN)[C@@H](C)/C=C(\C)[C@@H]1OC(N)=O)C2=O (stereo in doubt)

a:
> 100 µM
0.4 µM
> 25 µM

Quick request: Kd for each listed item, please.
1. C=CCNC1=C2C[C@@H](C)C[C@H](OC)[C@H](OC(=O)CCN)[C@@H](C)/C=C(\C)[C@H](OC(N)=O)[C@@H](OC)/C=C\C=C(/C)C(=O)NC(=CC1=O)C2=O (stereo in doubt)
2. CO[C@H]1C[C@H](C)CC2=C(NCCN(C)C)C(=O)C=C(NC(=O)/C(C)=C/C=C\[C@H](OC)[C@@H](OC(N)=O)/C(C)=C/[C@H](C)/C1=N\OCCN(C)C)C2=O (stereo in doubt)

a:
["> 25 µM", "> 100 µM"]

Quick request: Kd for each listed item, please.
1. CO[C@H]1/C=C\C=C(/C)C(=O)NC2=CC(=O)C(NCCN(C)C)=C(C[C@@H](C)C[C@H](OC)[C@H](NCCN(C)C)[C@@H](C)/C=C(\C)[C@@H]1OC(N)=O)C2=O (stereo in doubt)
2. C=CCNC1=C2C[C@@H](C)C[C@H](OC)[C@H](OC(=O)CN)[C@@H](C)/C=C(\C)[C@H](OC(N)=O)[C@@H](OC)/C=C\C=C(/C)C(=O)NC(=CC1=O)C2=O (stereo in doubt)

a:
> 50 µM
> 25 µM

* * *

test system: CCRF-CEM; experiment: Cytotoxicity against human CCRF-CEM cells after 72 hrs by celltiter-96 aqueous one solution assay; assay type: functional, cell-based
Returns: string. Value is Condition met if measured IC50 is below 0.2 µM, and Condition not met if it is greater than or equal to it.

Worked cases, answers included:
CO[C@H]1[C@@H](OC)C[C@H](C)CC2=C(N)C(=O)C=C(NC(=O)/C(C)=C/C=C\[C@H](OC)[C@@H](OC(N)=O)/C(C)=C/[C@@H]1C)C2=O; Condition not met
C=CCNC1=C2C[C@@H](C)C[C@H](OC)[C@H](OC)[C@@H](C)/C=C(\C)[C@H](OC(N)=O)[C@@H](OC)/C=C\C=C(/C)C(=O)NC(=CC1=O)C2=O (stereo in doubt); Condition not met
CO[C@H]1[C@@H](OC)C[C@H](C)CC2=C(NCCN3CCC3)C(=O)C=C(NC(=O)/C(C)=C/C=C\[C@H](OC)[C@@H](OC(N)=O)/C(C)=C/[C@@H]1C)C2=O (stereo in doubt); Condition met
CO[C@H]1[C@@H](OC)C[C@H](C)CC2=C(NCCN3CCCC3)C(=O)C=C(NC(=O)/C(C)=C/C=C\[C@H](OC)[C@@H](OC(N)=O)/C(C)=C/[C@@H]1C)C2=O (stereo in doubt); Condition met

Now turn to the next molecule.
q: Could you please tell me whether IC50 recorded for CO[C@H]1/C=C\C=C(/C)C(=O)NC2=CC(=O)C(NCCN(C)C)=C(C[C@@H](C)C[C@H](OC)[C@H](O)[C@@H](C)/C=C(\C)[C@@H]1OC(N)=O)C2=O (stereo in doubt) [ALVESPIMYCIN] is less than 0.2 µM?
a: Condition not met
